Taken from PubChem BioAssay AID2060897.

Entries and their IC50 values follow.
Test system: 966289-007-R4-J1-PDC complex spheroid viability;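 also: spheroids exposed to agents for one week before readout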
method description: Anticancer human tumor 966289-007-R4-J1-PDC patient-derived pancreatic adenocarcinoma cell line growth inhibition [RAS]
run conditions: curve of first compound; second compound 0.3 µM

compound	IC50
Cc1nc(N2CCC3(CC2)COC(C)C3N)c(CO)nc1Sc1ccnc(N)c1Cl (centres undefined) + CCn1c(-c2cccnc2C(C)OC)c2c3cc(ccc31)N1CCOC(CC(NC(=O)C(C(C)C)N(C)C(=O)C3(F)CCN(C(=O)C#CC(C)(C)N(C)C)CC3)C(=O)N3CCCC(N3)C(=O)OCC(C)(C)C2)C1	> 10000 nM
NC1c2ccccc2OC12CCN(c1cnc3c(N4CCCc5ncccc54)n[nH]c3n1)CC2 (centres undefined) + CCn1c(-c2cc(N3CCN(C)CC3)cnc2C(C)OC)c2c3cc(ccc31)-c1csc(n1)CC(NC(=O)C1CC1C)C(=O)N1CCCC(N1)C(=O)OCC(C)(C)C2	> 10000 nM
CC1(C)CCC(Nc2ncc(C(F)(F)F)c(-c3c[nH]c4c(P(C)(C)=O)c(C#N)ccc34)n2)CN1 (centres undefined) + CCn1c(-c2cccnc2C(C)OC)c2c3cc(ccc31)N1CCOC(CC(NC(=O)C(C(C)C)N(C)C(=O)C3(F)CCN(C(=O)C#CC(C)(C)N(C)C)CC3)C(=O)N3CCCC(N3)C(=O)OCC(C)(C)C2)C1	2.89 nM

-- ask Output measured IC50 for this item: C=CC(=O)Nc1cc(Nc2nccc(-c3cn(C)c4ccccc34)n2)c(OC)cc1N(C)CCN(C)C + CCn1c(-c2cccnc2C(C)OC)c2c3cc(ccc31)N1CCOC(CC(NC(=O)C(C(C)C)N(C)C(=O)C3(F)CCN(C(=O)C#CC(C)(C)N(C)C)CC3)C(=O)N3CCCC(N3)C(=O)OCC(C)(C)C2)C1
-- reply > 1000 nM
